Can you tell me inhibition for the items I'm about to list?
- Assay Target: Ephrin type-B receptor 4 (Homo sapiens)
- Assay Name: blockers of EphB4 ligand binding – biochemical, TNYL-RAW peptide probe, fluorescence polarization, primary screen (AID 720);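 also: 0% = DMSO wells and 100% = excess unlabeled TNYL-RAW peptide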
- Setup Conditions: EphB4 LBD / TNYL-RAW-Alexa532 peptide, at 7 µM, hits give high values
Out of some 97,000 compounds screened, about 140 (0.14%) were called active. For the sample, actives were picked, then their nearest neighbours and some compounds at random.
Respond numerically; units are % and should not be typed.

Incoming: State the recorded inhibition for this entry: COc1cccc2c1OCC1COc3c(c(=O)n(C)c(=O)n3C)C21 (stereo not given)
Outgoing: 5.25

Incoming: State the recorded inhibition for this entry: CN1/C(=c2/s/c(=C3/C(=O)N(c4ccccc4)NC3=Nc3ccccc3)n(C)c2=O)C(C)(C)c2ccccc21
Outgoing: 0.36

Incoming: State the recorded inhibition for this entry: Cc1cccc(NC(=O)c2ccc(OCC(=O)NCc3ccccc3)cc2)c1C
Outgoing: 0.02

Incoming: State the recorded inhibition for this entry: CCOc1cc2[nH]c(=O)n(CCC(=O)NCc3ccc(OC)cc3)c(=O)c2cc1OCC
Outgoing: 7.75

Incoming: State the recorded inhibition for this entry: O=C(COc1ncnc2c(Cl)cc(Cl)cc12)N1CCN(S(=O)(=O)c2ccccc2)CC1
Outgoing: -7.07
